Recorded values, source patent US12545659B2.

Biological target: IRAK4 (Homo sapiens, UniProt Q9NWZ3)
Construct: endogenous in cells; host or cells: OCI-LY10
Sequence (Q9NWZ3 1-460): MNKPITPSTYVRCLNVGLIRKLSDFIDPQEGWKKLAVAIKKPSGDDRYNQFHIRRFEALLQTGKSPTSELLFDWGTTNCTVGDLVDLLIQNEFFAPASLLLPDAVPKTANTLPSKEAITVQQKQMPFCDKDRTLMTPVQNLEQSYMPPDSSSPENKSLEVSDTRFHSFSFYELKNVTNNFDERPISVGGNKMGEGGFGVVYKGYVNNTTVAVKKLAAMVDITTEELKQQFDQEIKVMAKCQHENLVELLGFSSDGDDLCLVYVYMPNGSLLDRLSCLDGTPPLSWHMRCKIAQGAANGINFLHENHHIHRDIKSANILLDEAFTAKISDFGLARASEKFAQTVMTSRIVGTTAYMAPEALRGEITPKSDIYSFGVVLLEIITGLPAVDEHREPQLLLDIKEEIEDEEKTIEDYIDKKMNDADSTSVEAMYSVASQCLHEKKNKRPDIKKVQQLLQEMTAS
Assay: IRAK4 MSD Degradation in OCI-LY10
Format: cell-based
Settings: OCI-LY10 cells, 24 hrs incubation, read-out: IRAK4 degradation in OCI-LY10 at 24 hrs: DC50
REPORTED PROPERTY: DC50

Some entries whose results are on file:
CC(C)(O)c1cc2nn([C@H]3CC[C@H](CN4CCO[C@@H](CCCNc5cccc6c5C(=O)N(C5CCC(=O)NC5=O)C6=O)C4)CC3)cc2cc1NC(=O)c1cccc(C(F)(F)F)n1 (stereo partly shown)    < 50 nM
COc1cc2nn([C@H]3CC[C@H](CN4CCC5(CC4)CC(CCNc4cccc6c4C(=O)N(C4CCC(=O)NC4=O)C6=O)C5)CC3)cc2cc1NC(=O)c1cnn2cccnc12 (stereo partly shown)    < 50 nM
CN(CCCO[C@H]1C[C@H](Nc2cccc3c2C(=O)N(C2CCC(=O)NC2=O)C3=O)C1)C[C@H]1CC[C@H](n2cc3cc(NC(=O)Cc4cccc(C(F)(F)F)n4)c(C(C)(C)O)cc3n2)CC1 (stereo partly shown)    500 to 1000 nM
Cc1cccc(C(=O)Nc2cc3cn([C@H]4CC[C@H](CN(C)[C@H]5CC[C@H](Nc6cccc7c6C(=O)N(C6CCC(=O)NC6=O)C7=O)CC5)CC4)nc3cc2C(C)(C)O)n1 (stereo partly shown)    < 50 nM
CN(C[C@H]1CC[C@H](n2cc3cc(NC(=O)c4cccc(C(F)(F)F)n4)c(C(C)(C)O)cc3n2)CC1)C1CCC2(CC1)CC(CNc1cccc3c1C(=O)N(C1CCC(=O)NC1=O)C3=O)C2 (stereo partly shown)    < 50 nM
COc1cc2nn([C@H]3CC[C@H](CN4CCC5(CC4)CC(CNc4cccc6c4C(=O)N(C4CCC(=O)NC4=O)C6=O)C5)CC3)cc2cc1NC(=O)c1cccc(C(F)F)n1 (stereo partly shown)    < 50 nM

# evaluate next
Task: State its DC50 for this compound: COc1cc2nn([C@H]3CC[C@H](CN(C)C4CCC5(CC4)CC(CNc4cccc6c4C(=O)N(C4CCC(=O)NC4=O)C6=O)C5)CC3)cc2cc1NC(=O)c1cccc(-c2cnn(C)c2)n1 (stereo partly shown)
Result: 50 to 100 nM
